biological target: HIF prolyl hydroxylase; test: Inhibition of the activity of HIF prolyl hydroxylase (VBC complex binding test); settings: cell lysate containing prolyl hydroxylase
Where a name gives a salt, the structure may show the parent alone.
value.kind: pIC50
Units for pIC50: none; it is -log10 of a concentration expressed in mol/L.

Solved cases below.
N#Cc1cn(-c2c[nH]n(-c3cc(N4CCCOCC4)ncn3)c2=O)cn1 [Example 25]    6.74
CN(C)C1CN(c2cc(-n3[nH]cc(-n4ccnn4)c3=O)ncn2)C1 [Example 9, dihydrochloride]    6.12
N#Cc1cn(-c2c[nH]n(-c3cc(N4CC(F)(F)C4)ncn3)c2=O)nn1 [Example 21]    7.15

Now for the compound whose pIC50 we want.
Data request: Return value of pIC50 for input N#Cc1cn(-c2c[nH]n(-c3cc(N4CCCCO4)ncn3)c2=O)nn1 [Example 29] , no commentary.
Data returned: 6.77

Values were extracted from patent US8580778B2.
